Biological target: Gonadotropin-releasing hormone receptor (Rattus norvegicus)
Experiment: Agonist activity at LH-RH receptor in rat pituitary gland assessed as change in FSH secretion at 100000 ng/ml
Listing: Activity of selected compounds
Measurement type: Activity (ng/mL)

Input smiles: CC(C)C[C@H](NC(=O)[C@@H](NC(=O)[C@@H]1CCC(=O)N1)C(C)C)C(=O)N[C@@H](CO)C(=O)N[C@@H](Cc1ccc(O)cc1)C(=O)N[C@H](C)C(=O)N[C@@H](CC(C)C)C(=O)N[C@@H](CCCNC(=N)N)C(=O)N1CCC[C@H]1C(=O)NCC(N)=O
System under test: Gonadotropin-releasing hormone receptor (Rattus norvegicus)
Reported: 158

Input smiles: CC(C)C[C@H](NC(=O)[C@@H](C)NC(=O)[C@H](Cc1ccc(O)cc1)NC(=O)[C@H](CO)NC(=O)[C@@H](NC(=O)[C@@H](NC(=O)[C@@H]1CCC(=O)N1)C(C)C)C(C)C)C(=O)N[C@@H](CCCNC(=N)N)C(=O)N1CCC[C@H]1C(=O)NCC(N)=O
System under test: Gonadotropin-releasing hormone receptor (Rattus norvegicus)
Reported: 850

Input smiles: CC(C)C[C@H](NC(=O)[C@@H]1CCC(=O)N1)C(=O)N[C@@H](CC(C)C)C(=O)N[C@@H](CO)C(=O)N[C@@H](Cc1ccc(O)cc1)C(=O)N[C@H](C)C(=O)N[C@@H](CC(C)C)C(=O)N[C@@H](CCCNC(=N)N)C(=O)N1CCC[C@H]1C(=O)NCC(N)=O
System under test: Gonadotropin-releasing hormone receptor (Rattus norvegicus)
Reported: 1690

Input smiles: CC(C)C[C@H](NC(=O)[C@@H]1CCC(=O)N1)C(=O)N[C@H](C(=O)N[C@@H](CO)C(=O)N[C@@H](Cc1ccc(O)cc1)C(=O)N[C@H](C)C(=O)N[C@@H](CC(C)C)C(=O)N[C@@H](CCCNC(=N)N)C(=O)N1CCC[C@H]1C(=O)NCC(N)=O)C(C)C
System under test: Gonadotropin-releasing hormone receptor (Rattus norvegicus)
Reported: -185

* * *

Test: Retardation factor of the compound using 2-propanol-1N AcOH at ratio of 2:1 as solvent system by thin layer chromatography
Assay type: physicochemical

Input smiles: CC(C)C[C@H](NC(=O)[C@@H](C)NC(=O)[C@H](Cc1ccc(O)cc1)NC(=O)[C@H](CO)NC(=O)[C@@H](NC(=O)[C@@H](NC(=O)[C@@H]1CCC(=O)N1)C(C)C)C(C)C)C(=O)N[C@@H](CCCNC(=N)N)C(=O)N1CCC[C@H]1C(=O)NCC(N)=O
Rf: 0.54

Input smiles: CC(C)C[C@H](NC(=O)[C@@H]1CCC(=O)N1)C(=O)N[C@@H](CC(C)C)C(=O)N[C@@H](CO)C(=O)N[C@@H](Cc1ccc(O)cc1)C(=O)N[C@H](C)C(=O)N[C@@H](CC(C)C)C(=O)N[C@@H](CCCNC(=N)N)C(=O)N1CCC[C@H]1C(=O)NCC(N)=O
Rf: 0.67

Input smiles: CC(C)C[C@H](NC(=O)[C@@H](NC(=O)[C@@H]1CCC(=O)N1)C(C)C)C(=O)N[C@@H](CO)C(=O)N[C@@H](Cc1ccc(O)cc1)C(=O)N[C@H](C)C(=O)N[C@@H](CC(C)C)C(=O)N[C@@H](CCCNC(=N)N)C(=O)N1CCC[C@H]1C(=O)NCC(N)=O
Rf: 0.58

Input smiles: CC(C)C[C@H](NC(=O)[C@@H]1CCC(=O)N1)C(=O)N[C@H](C(=O)N[C@@H](CO)C(=O)N[C@@H](Cc1ccc(O)cc1)C(=O)N[C@H](C)C(=O)N[C@@H](CC(C)C)C(=O)N[C@@H](CCCNC(=N)N)C(=O)N1CCC[C@H]1C(=O)NCC(N)=O)C(C)C
Rf: 0.57
